# Test system: SF-268 CNS
# testSummary: NCI-60 one-dose screen, 48 h (100 = growth as untreated, 0 = no growth, -100 = all killed)
# measurementSetup: 10 µM unless noted
This is part of a sample that, as a whole, favours compounds with a hit. Of some 83,000 tested, about 20% had one in any assay.
Note to self: growth under 90% means True, ties and anything higher get False.

[in] Problem: For the molecule `CCCCCCCCCCCCCCCCN(CC)CC` , is growth under 90%?
[out] True

[in] Also `CCOc1ccc(-c2nc3ccc(-c4nc5ccc(N6CCN(C)CC6)cc5[nH]4)cc3[nH]2)cc1` , if possible.
[out] True

[in] Also CCC(CCCN(CC)CCc1ccccc1)OC(=O)c1cc(OC)c(OC)c(OC)c1 (stereo not drawn) , if possible.
[out] True

[in] Also `Nc1ccc(SSc2ccc(N)cc2)cc1` , if possible.
[out] False

[in] Also `NC1=CC(=O)c2ccccc2C1=O` , if possible.
[out] False

More entries:
[in] Problem: For the molecule `CC(=Nc1ccc(N(C)C)cc1)c1ccccc1` , is growth under 90%?
[out] True

[in] Also CN(C)c1ccc(C(=C2C=CC(=[N+](C)C)C=C2)c2ccc(N(C)C)cc2)cc1 (tested in a mixture with another compound) , if possible.
[out] True

[in] Also O=C(CC1(O)C(=O)Nc2c(Cl)ccc(Cl)c21)c1ccc(Cl)cc1Cl (stereo not drawn) , if possible.
[out] False

###

# Test system: OVCAR-3 ovarian
# testSummary: NCI-60 one-dose screen, 48 h
# measurementSetup: 10 µM unless noted
About 83,000 compounds went through this panel and 20% of them were active in at least one assay; those are over-represented in the sample as a whole. Calls of active or inactive are those of the source. Rule for the calls: active = growth percent below 10; inactive = the rest.
Outcome field: choose from YES = active, NO = inactive

[in] What classification did C1=C(c2ccccc2)C(c2ccc(OCCN3CCCCC3)cc2)Oc2ccccc21 (stereo unspecified) end up with in this test?
[out] NO

[in] Also O=C(CC1(O)C(=O)Nc2c(Cl)ccc(Cl)c21)c1ccc(Cl)cc1Cl (stereo unspecified) , if possible.
[out] NO

[in] Also `C=CCOc1ccc(N=NC(C#N)C#N)cc1` , if possible.
[out] NO

[in] Also CC1OC2CC(=O)OC2C2=C1C(=O)c1c(O)cccc1C2=O (stereo unspecified) , if possible.
[out] YES

[in] Also `NC(N)=N/N=C/c1ccc([N+](=O)[O-])o1` , if possible.
[out] NO

As a next step, examine the compound that follows.
[in] What classification did `O=C(/C=C/C=C/c1ccccc1)c1ccco1` end up with in this test?
[out] NO

###

# System: NCI-H460 lung
# testSummary: NCI-60 one-dose screen, 48 h (100 = growth as untreated, 0 = no growth, -100 = all killed)
# measurementSetup: 10 µM unless noted
Compounds without any hit were thinned out: in the full panel of roughly 83,000, 20% have a hit.
measuredAttribute: growth (%)
One number for each entry, in %.

For every record below, what is its growth?
1. Cc1c2ccccc2c(C)c2c1ccc1ccccc12
2. CNc1ccc2c(c1)c1ccccc1n2C
3. CN(C)c1ccc(N=Nc2cccc3ccccc23)cc1
4. CCOC(=O)c1c(C)[nH]c(CO)c1C
5. N#Cc1ccc([N+](=O)[O-])o1
6. CCC(CCCN(CC)CCc1ccccc1)OC(=O)c1cc(OC)c(OC)c(OC)c1 (stereo unspecified)

[out]
1: 87.6; 2: 108; 3: 92.7; 4: 110; 5: 107; 6: 101

###

# Tested on: HCT-15 colon
# testSummary: NCI-60 one-dose screen, 48 h
# measurementSetup: 10 µM unless noted
The panel holds about 83,000 compounds, 20% with a hit somewhere; the sample as a whole holds those more often. Calls of active or inactive are those of the source. Rule for the calls: active = growth percent below 10; inactive = the rest.
Outcome field: choose from active, inactive

Example entries begin here.
[in] What classification did `CC(=O)C(=Cc1ccc(C=C(C(C)=O)C(C)=O)cc1)C(C)=O` end up with in this test?
[out] active

[in] Also `COC(=O)c1nc(=S)[nH]c(C(=O)OC)c1C(=O)c1ccc2ccccc2c1` , if possible.
[out] inactive

[in] Also `N#CSCc1ccc(CSC#N)c(Cl)c1` , if possible.
[out] inactive

[in] Also `CNC(=O)N/N=C/c1ccc([N+](=O)[O-])o1` , if possible.
[out] inactive

[in] Also `O=C(Nc1ccccc1)c1cc(Cl)ccc1O` , if possible.
[out] inactive

More entries:
[in] What classification did `C[N+](C)=c1ccc2nc3c(cc(NCCCNc4cc5oc6cc(=[N+](C)C)ccc-6nc5c5ccccc45)c4ccccc43)oc-2c1` end up with in this test?
[out] active

###

Answer each item with its documented growth.
# Test system: SF-295 CNS
# testSummary: NCI-60 one-dose screen, 48 h (100 = growth as untreated, 0 = no growth, -100 = all killed)
# measurementSetup: 10 µM unless noted
About 83,000 compounds went through this panel and 20% of them were active in at least one assay; those are over-represented in the sample as a whole.
Numbers only, in %.

For every record below, what is its growth?
1. N#CSCC(=O)c1ccc(Cl)cc1
2. N#Cc1ccc([N+](=O)[O-])o1
3. C[n+]1c(/C=C/c2ccc([N+](=O)[O-])cc2)ccc2ccccc21

[out]
[49.4, 99.6, 100]

###

# Tested on: NCI-H460 lung
# testSummary: NCI-60 one-dose screen, 48 h (100 = growth as untreated, 0 = no growth, -100 = all killed)
# measurementSetup: 10 µM unless noted
Compounds without any hit were thinned out: in the full panel of roughly 83,000, 20% have a hit.
measuredAttribute: growth (%)
Numbers only, in %.

Worked examples, 2 compounds total:
[in] Query: growth; subject: `O=C1c2ccccc2C(=O)c2sc(Nc3ccc(Cl)cc3)nc21`
[out] 87.7

[in] Also `CCCCCCCCCCCCCCCCN(CC)CC` , if possible.
[out] 1.87

For every record below, what is its growth?
1. NC(N)=N/N=C/c1ccc([N+](=O)[O-])o1
2. CC(C)c1ccc2nc3ccc(C(=O)NCCN4CCN(c5ccccc5)CC4)cn3c(=O)c2c1
3. CC(=Nc1ccc(N(C)C)cc1)c1ccccc1

[out]
80.2
65.2
34.2

For every record below, what is its growth?
1. CN(C)CCOc1ccc2c(c1)C(=O)/C(=C\c1ncc([N+](=O)[O-])n1C)C2
2. CC1OC2CC(=O)OC2C2=C1C(=O)c1c(O)cccc1C2=O (centres undefined)
3. O=C1OCc2cccc3cccc1c23
4. CCC1OC(OC)C=CC1=O (centres undefined)
5. C=CCOc1ccc(N=NC(C#N)C#N)cc1

[out]
[-57.5, -0.634, 104, 108, 104]

For every record below, what is its growth?
1. CN(C)c1ccc(/C=N/N=C(\C#N)[S][Sn]([Cl])([c]2ccccc2)[c]2ccccc2)cc1
2. CCOC(=O)/C(=C\c1ccc(-c2ccccc2)cc1)C(C)=O
3. Cc1ccc2nc(-[n+]3cc4ccccc4cc3C)ccc2c1
4. CC(C)(C)c1ccc(O)c(C2CCCCC2)c1
5. Nc1ccc(SSc2ccc(N)cc2)cc1

[out]
[84.3, 103, 29.5, 107, 100]

For every record below, what is its growth?
1. COc1ccccc1/C=C\C(=O)c1ccccc1
2. CCN1/C(=C\c2cc[n+](CC)c3ccccc23)C=Cc2ccccc21
3. Oc1c(Cl)c2ccccc2c2ccccc12
4. CCN(CC)CCOc1ccc(-c2nc3cc(Cl)ccc3s2)cc1

[out]
59.5
-32.8
116
-64.6

###

# Test system: MOLT-4 leukemia
# testSummary: NCI-60 one-dose screen, 48 h
# measurementSetup: 10 µM unless noted
This is part of a sample that, as a whole, favours compounds with a hit. Of some 83,000 tested, about 20% had one in any assay. Calls of active or inactive are those of the source. How the source made its calls: active means growth percent below 10; inactive means the rest.
Outcome field: choose from active, inactive

[in] What classification did `COC(=O)c1nc(=S)[nH]c(C(=O)OC)c1C(=O)c1ccc2ccccc2c1` end up with in this test?
[out] inactive

More entries:
[in] What classification did CCC(c1cccc(O)c1)C(CC)c1cccc(O)c1 (stereo not drawn) end up with in this test?
[out] inactive

[in] Also `N#CSCC(=O)c1ccc(Cl)cc1` , if possible.
[out] inactive

###

# Tested on: HCC-2998 colon
# testSummary: NCI-60 one-dose screen, 48 h
# measurementSetup: 10 µM unless noted
The panel holds about 83,000 compounds, 20% with a hit somewhere; the sample as a whole holds those more often. Calls of active or inactive are those of the source. How the source made its calls: active means growth percent below 10; inactive means the rest.
Outcome field: choose from YES (active), NO (inactive)

[in] What classification did `N#CSCc1c(Cl)cccc1Cl` end up with in this test?
[out] NO

[in] Also `O=C1c2ccccc2C(=O)c2sc(Nc3cccc(Cl)c3)nc21` , if possible.
[out] YES

[in] Also `O=C(/C=C\c1cc(Br)ccc1O)/C=C/c1cc(Br)ccc1O` , if possible.
[out] YES

[in] Also CCCCCCCCCCCCCCCC[N+](C)(CCO)Cc1cnc[nH]1 (stereo not drawn) , if possible.
[out] YES

[in] Also CN1c2ccccc2C(C)(C)C12C=Cc1cc(O)ccc1O2 (stereo not drawn) , if possible.
[out] NO

[in] Also `O=C(/C=C/c1cccc(Cl)c1)c1ccccc1` , if possible.
[out] NO

More entries:
[in] What classification did `Oc1c(Cl)c2ccccc2c2ccccc12` end up with in this test?
[out] NO

[in] Also `CCC(CC)COC(=O)c1ccc(O)c(O)c1` , if possible.
[out] NO
